These measurements were taken from PubChem BioAssay (NCI).

Test system: SF-539 CNS
Experiment: NCI tumour cell line growth inhibition, 48 h
measuredEndpoint: GI50

chemicalStructure: CC(=O)O[C@H]1CC[C@]2(C)[C@H]3C(=O)C=C4[C@@H]5C[C@](C)(C(=O)N6CCCNCC6)CC[C@]5(C)CC[C@@]4(C)[C@]3(C)CC[C@H]2C1(C)C
measuredEndpoint: GI50
reportedValue: 1620 nM

chemicalStructure: CCCCCCCCCCCCCCCC[N+](C)(C)C
measuredEndpoint: GI50
reportedValue: 1490 nM

chemicalStructure: O=c1c2ccccc2c(C=NCCNCCO)c2oc3ccccc3n12
measuredEndpoint: GI50
reportedValue: 3510 nM

chemicalStructure: CCOc1ccc2c(-c3ccnc(Nc4cccc(C(F)(F)F)c4)n3)cnn2n1
measuredEndpoint: GI50
reportedValue: 4920 nM

chemicalStructure: COc1ccc(S(=O)(=O)N2CCCCC2)cc1NC(=O)c1[nH]c(C)c2c1CCCCC2=O
measuredEndpoint: GI50
reportedValue: 2310 nM

Switching to the query record.
Challenge: Enter reported GI50 observed with SF-539 CNS for "COc1cc(/C=C\c2cc(/C=C\c3ccc(O)c(OC)c3)n(C(=O)Nc3ccc(C(F)(F)F)cc3)n2)ccc1O"
Response given: 2370 nM

* * *

Test system: HCT-15 colon
Assay: NCI tumour cell line growth inhibition, 48 h; in the data active = GI50 below about 0.43 µM; inactive = the rest
Thanks in advance; please answer with one of these: active, inactive

Sample answers from the record:
chemicalStructure: CN1CCN(c2ccc3nc(-c4ccc5nc(-c6ccc(C(F)(F)F)cc6)[nH]c5c4)[nH]c3c2)CC1
classLabel: inactive

chemicalStructure: Cc1ccc2nc(NC(=O)CSC(=S)N3CCN(Cc4ccccc4)CC3)sc2c1
classLabel: inactive

chemicalStructure: O=C(Oc1ccccc1Cl)c1cccnc1Nc1ccnc(C(F)(F)F)c1
classLabel: inactive

chemicalStructure: COc1ccc(OC)c(-c2cn3nc(-c4c[nH]c5ccc(Br)cc45)sc3n2)c1
classLabel: inactive

chemicalStructure: COc1cc(C)c(N(C)C(=O)CN(C)C)cc1Nc1nc(Nc2cccc(F)c2C(N)=O)c2cc[nH]c2n1
classLabel: inactive

chemicalStructure: C[C@]1(O)CC(=O)[C@]2(O)C3=C(C=C[C@]2(O)C1)C(=O)c1c(O)cccc1C3=O
classLabel: inactive

chemicalStructure: COc1cc2c(cc1OCCN1C(=O)c3cccc4cccc(c34)C1=O)N=C[C@@H]1CCCN1C2=O
classLabel: inactive

chemicalStructure: COc1cc(/C=C\c2cc(/C=C\c3ccc(O)c(OC)c3)n(C(=O)Nc3ccc(C(F)(F)F)cc3)n2)ccc1O
classLabel: inactive

chemicalStructure: CCCCCCCCOC(=O)c1cc(O)c(O)c(O)c1
classLabel: inactive

chemicalStructure: CC(C)NCCCNC1=C(Cl)C(=O)c2ccccc2C1=O
classLabel: inactive

Challenge: Record request — test call for "COc1ccc(S(=O)(=O)N2CCCCC2)cc1NC(=O)c1[nH]c(C)c2c1CCCCC2=O"
Response given: inactive

Challenge: Record request — test call for "O=C1c2ccccc2C(=O)c2c1c(NCCNCCO)c1cc[nH]c1c2NCCNCCO"
Response given: inactive

Challenge: Record request — test call for "CCCCCn1ncc(-c2c(O)c(O)cc3c(O)c(-c4c(C)cc5c(-c6cnn(CCCCC)n6)c(O)c(O)cc5c4O)c(C)cc23)n1"
Response given: active

Challenge: Record request — test call for "N#C/C(=C/c1cccs1)c1cccs1"
Response given: inactive

Challenge: Record request — test call for "CC(=O)O[C@H]1CC[C@]2(C)[C@H]3C(=O)C=C4[C@@H]5C[C@](C)(C(=O)N6CCCNCC6)CC[C@]5(C)CC[C@@]4(C)[C@]3(C)CC[C@H]2C1(C)C"
Response given: inactive

Challenge: Record request — test call for "COc1ccc(-c2ccc(=O)oc2-c2cc(OC)c(OC)c(OC)c2)cc1O"
Response given: active

Challenge: Record request — test call for "COc1ccc(-n2nc(C)c3c(Nc4ccc(NC(=O)Nc5cc(C(F)(F)F)ccc5F)cc4)ncnc32)cc1"
Response given: inactive

Challenge: Record request — test call for "CC(=O)[CH-]C(=O)c1ccccc1.CC(=O)[CH-]C(=O)c1ccccc1.[O-]c1ccc(O)cc1.[O-]c1ccc(O)cc1.[Ti+4]"
Response given: inactive

* * *

Test system: SW-620 colon
Assay: NCI tumour cell line growth inhibition, 48 h; in the data active = GI50 below about 0.43 µM; inactive = the rest
Thanks in advance; please answer with one of these: active, inactive

Sample answers from the record:
chemicalStructure: CC(=O)c1ccc(NCn2nc(-c3ccccc3O)oc2=S)cc1
testedOn: SW-620 colon
classLabel: inactive

chemicalStructure: COc1cc2c(c(OC)c1OC)C(=O)c1c-2n(CCCN)c(=O)c2cc([N+](=O)[O-])ccc12
testedOn: SW-620 colon
classLabel: active

chemicalStructure: COc1ccccc1NC(=O)N/C(N)=N/c1nc2ccccc2s1
testedOn: SW-620 colon
classLabel: active

chemicalStructure: COc1ccc(CNCCCN2C(=O)c3ccc4c5c(ccc(c35)C2=O)C(=O)N(CCCNCCCCNCCCN)C4=O)c(OC)c1OC
testedOn: SW-620 colon
classLabel: inactive

chemicalStructure: CC(C)(C)c1cc2c(OP(c3ccccc3)c3ccccc3)c(c1)Cc1cc(C(C)(C)C)cc(c1OP(c1ccccc1)c1ccccc1)Cc1cc(C(C)(C)C)cc(c1OP(c1ccccc1)c1ccccc1)Cc1cc(C(C)(C)C)cc(c1OP(c1ccccc1)c1ccccc1)C2
testedOn: SW-620 colon
classLabel: inactive

Challenge: Record request — test call for "Cc1cc(C)c(S(=O)(=O)Oc2ccccc2[N+](=O)[O-])c(C)c1"
Response given: inactive

Challenge: Record request — test call for "CCc1nc2cc(/C=C/C(=O)NO)c(F)cc2c(=O)n1CCc1ccccc1"
Response given: inactive

Challenge: Record request — test call for "COc1ccc(/C=C2/CCOC2=O)cc1"
Response given: inactive

* * *

Each entry below carries its reported TGI.
Test system: HCC-2998 colon
Test: NCI tumour cell line growth inhibition, 48 h
Dear colleague, please return just the value in µM, with no unit written.

Worked cases, TGI given:
compound: CCCCCn1ncc(-c2c(O)c(O)cc3c(O)c(-c4c(C)cc5c(-c6cnn(CCCCC)n6)c(O)c(O)cc5c4O)c(C)cc23)n1
TGI / µM: 4.24
--
compound: CCCCCCCCCCSS(=O)(=O)c1ccc(C)cc1
TGI / µM: 39.3
--
compound: C#CCCCCC#CC1CCCC1C1=CC(=O)c2ccccc21 (centres undefined)
TGI / µM: 25.2
--
compound: CC1(C)[C@@H]2C[C@H]1C(Cc1ccccc1C[C@H]1c3cc(-c4ccccn4)ncc3[C@H]3C[C@@H]1C3(C)C)c1cc(-c3ccccn3)ncc12 (some centres undefined)
TGI / µM: 39.8
--
compound: CC(=O)NC1C(OCc2ccccc2)OC(CO)C(O)C1OCC(=O)NC(C)C(=O)NC(CCC(=O)OCCNC(=O)c1cccc2cc3ccccc3nc12)C(N)=O (centres undefined)
TGI / µM: 40.4
--
compound: COc1ccc(-n2nc(C)c3c(Nc4ccc(NC(=O)Nc5cc(C(F)(F)F)ccc5F)cc4)ncnc32)cc1
TGI / µM: 15.5
--
compound: NC(Cc1ccc2oc3cc(=O)c4ccccc4c-3nc2c1)C(=O)O (centres undefined)
TGI / µM: 40.2
--
compound: CC(C)NCCCNC1=C(Cl)C(=O)c2ccccc2C1=O
TGI / µM: 4.49

Challenge: Enter reported TGI observed with HCC-2998 colon for "COc1ccc(CNCCCN2C(=O)c3ccc4c5c(ccc(c35)C2=O)C(=O)N(CCCNCCCCNCCCN)C4=O)c(OC)c1OC"
Response given: 4.79

Challenge: Enter reported TGI observed with HCC-2998 colon for "CCc1nc2cc(/C=C/C(=O)NO)c(F)cc2c(=O)n1CCc1ccccc1"
Response given: 11.3

Challenge: Enter reported TGI observed with HCC-2998 colon for "O=c1cc2oc3ccc4ccccc4c3cc-2c(=O)[nH]1"
Response given: 31.8

Challenge: Enter reported TGI observed with HCC-2998 colon for "O=C(C1=CCC2(CC1)OCCO2)N(Cc1ccccc1)c1ccccc1I"
Response given: 32.8

Challenge: Enter reported TGI observed with HCC-2998 colon for "C=C(/C=C/C=C(/CCC=C(C)C)COC(C)=O)[C@@H]1CC[C@]2([C@H](CCCO)/C(=C(/C)C=O)CC[C@]2(C)O)[C@@H]1O"
Response given: 20.3

Challenge: Enter reported TGI observed with HCC-2998 colon for "C=C(C)[C@@H]1CC[C@]2(C)[C@H](CC=C3[C@@H]4CC(C)(C)CC[C@]4(C(=O)OC)CC[C@]32C)[C@@]1(C)CC/C(N)=N/O"
Response given: 3.67

* * *

Test system: HOP-62 NSCLC
Experiment: NCI tumour cell line growth inhibition, 48 h; in the data active means GI50 below about 0.43 µM; inactive means the rest
Thanks in advance; please answer with one of these: yes (1) = active, no (0) = inactive

Sample answers from the record:
compound: C[C@]1(O)CC(=O)[C@]2(O)C3=C(C=C[C@]2(O)C1)C(=O)c1c(O)cccc1C3=O
classLabel: no (0)
--
compound: CCCN(CCC)c1ccc(C=O)c(OC)c1
classLabel: no (0)
--
compound: C=C(C)[C@@H]1CC[C@]2(c3ncc(C)o3)CC[C@]3(C)[C@H](CC[C@@H]4[C@@](C)(CCC#N)[C@H](C(=C)C)CC[C@]43C)[C@@H]12
classLabel: no (0)
--
compound: COc1ccc(/C=C2/CCOC2=O)cc1
classLabel: no (0)
--
compound: CC(C)(C)c1cc2c(OP(c3ccccc3)c3ccccc3)c(c1)Cc1cc(C(C)(C)C)cc(c1OP(c1ccccc1)c1ccccc1)Cc1cc(C(C)(C)C)cc(c1OP(c1ccccc1)c1ccccc1)Cc1cc(C(C)(C)C)cc(c1OP(c1ccccc1)c1ccccc1)C2
classLabel: no (0)
--
compound: CCN(CCc1ccc(F)cc1)c1ccc(CO)c(Cl)c1
classLabel: no (0)
--
compound: COc1ccc(S(=O)(=O)N2CCCCC2)cc1NC(=O)c1[nH]c(C)c2c1CCCCC2=O
classLabel: no (0)
--
compound: CO/N=C(\COc1ccc2c(=O)cc(-c3ccccc3)oc2c1)c1ccc(OC)cc1
classLabel: no (0)

Challenge: Record request — test call for "CCCCCn1ncc(-c2c(O)c(O)cc3c(O)c(-c4c(C)cc5c(-c6cnn(CCCCC)n6)c(O)c(O)cc5c4O)c(C)cc23)n1"
Response given: yes (1)

Challenge: Record request — test call for "Cc1ccc2nc(NC(=O)CSC(=S)N3CCN(Cc4ccccc4)CC3)sc2c1"
Response given: no (0)

Challenge: Record request — test call for "CC(=O)O[C@H]1CC[C@]2(C)[C@H]3C(=O)C=C4[C@@H]5C[C@](C)(C(=O)N6CCCNCC6)CC[C@]5(C)CC[C@@]4(C)[C@]3(C)CC[C@H]2C1(C)C"
Response given: no (0)

Challenge: Record request — test call for "Cn1c(-c2c(N)n(Cc3ccc(Cl)cc3)c3nc(C#N)c(C#N)nc23)nc2ccccc21"
Response given: no (0)

Challenge: Record request — test call for "O=c1c2ccccc2c(C=NCCNCCO)c2oc3ccccc3n12"
Response given: no (0)

Challenge: Record request — test call for "CN([N-]C(=O)CC(=O)[N-]N(C)C(=S)c1ccccc1)C(=S)c1ccccc1.[Cu+2]"
Response given: yes (1)

Challenge: Record request — test call for COc1cccc2c1C(=O)c1c(O)c3c(c(O)c1C2=O)C[C@@](O)(C(=O)COC(=O)c1cccnc1)C[C@@H]3OC1CC(N)C(O)C(C)O1 (stereo not given in full)
Response given: yes (1)
